Tested on: NCI-H226 lung
Test method notes: NCI tumour cell line growth inhibition, 48 h
Attribute measured: GI50

Give its GI50 value. Item: `O=C(Nc1ccc(Br)cc1F)c1cc(F)ccc1O`
0.67 µM

Try the molecule `NC(=O)/C=C/C(=O)c1c(Cl)cccc1Cl`
2.52 µM

Try the molecule `CCOC(=O)C1=CN(C)C=C(C(=O)OCC)C1c1cc(Br)c(OCC)c(OC)c1`
> 100 µM

Try the molecule CC1=C(C(=O)Nc2ccc(F)c(Cl)c2)C(c2ccccc2O)NC(=S)N1 (stereo unspecified)
> 50 µM

Try the molecule `CO/N=C(/C)c1cccc(Nc2cc(-n3nnc4ccccc43)nc3ccccc23)c1`
27.3 µM

Try the molecule `COc1ccc(OC)c2c1[nH]c(=O)c1c3ccccc3cn21`
1.61 µM
